Data credit: paper PMC12860872

test: Extrapolated human dosimetry (OLINDA/EXM, ICRP-89 phantoms)
experimentalParameters: ICRP 89 Adult Male, extrapolated
Entries and their measured Absorbed dose (AD average) Right colon follow.
# number only, unit mGy/Mbq dropped from output

compound	measuredQuantity	resultValue
N#C[C@@H]1CC(F)(F)CN1C(=O)CNC(=O)c1ccnc2ccc(OCCCCNC(=O)CC[C@H](NC(=O)CCC(C(=O)O)N3CCN(CC(=O)[O-])CCN(CC(=O)[O-])CCN(CC(=O)[O-])CC3)C(=O)NCCCCOc3ccc4nccc(C(=O)NCC(=O)N5CC(F)(F)C[C@H]5C#N)c4c3)cc12.[177Lu+3] (stereo partly shown) [[^177Lu]Lu-DOTAGA.Glu.(FAPI)2]	Absorbed dose (AD average) Right colon	5.39E-02
N#C[C@@H]1CC(F)(F)CN1C(=O)CNC(=O)c1ccnc2ccc(OCCCCNC(=O)CC[C@H](NC(=O)CN3CCN(CC(=O)[O-])CCN(CC(=O)[O-])CCN(CC(=O)[O-])CC3)C(=O)NCCCCOc3ccc4nccc(C(=O)NCC(=O)N5CC(F)(F)C[C@H]5C#N)c4c3)cc12.[177Lu+3] [[^177Lu]Lu-DO3A.Glu.(FAPI)2]	Absorbed dose (AD average) Right colon	3.94E-02
N#C[C@@H]1CC(F)(F)CN1C(=O)CNC(=O)c1ccnc2ccc(OCCCCNC(=O)CC[C@H](NC(=O)CN3CCN(CC(=O)[O-])CCN(CC(=O)[O-])CCN(CC(=O)[O-])CC3)C(=O)NCCCCOc3ccc4nccc(C(=O)NCC(=O)N5CC(F)(F)C[C@H]5C#N)c4c3)cc12.[161Tb+3] [[^161Tb]Tb-DO3A.Glu.(FAPI)2]	Absorbed dose (AD average) Right colon	2.86E-02

Item: N#C[C@@H]1CC(F)(F)CN1C(=O)CNC(=O)c1ccnc2ccc(OCCCCNC(=O)CC[C@H](NC(=O)CCC(C(=O)O)N3CCN(CC(=O)[O-])CCN(CC(=O)[O-])CCN(CC(=O)[O-])CC3)C(=O)NCCCCOc3ccc4nccc(C(=O)NCC(=O)N5CC(F)(F)C[C@H]5C#N)c4c3)cc12.[161Tb+3] (stereo partly shown) [[^161Tb]Tb-DOTAGA.Glu.(FAPI)2] | Absorbed dose (AD average) Right colon: 7.38E-02

* * *

List of Absorbed dose (AD average) Thymus values.
test: Extrapolated human dosimetry (OLINDA/EXM, ICRP-89 phantoms)
experimentalParameters: ICRP 89 Adult Male, extrapolated
Respond numerically; units are mGy/Mbq and should not be typed.

molecule	resultValue
N#C[C@@H]1CC(F)(F)CN1C(=O)CNC(=O)c1ccnc2ccc(OCCCCNC(=O)CC[C@H](NC(=O)CN3CCN(CC(=O)[O-])CCN(CC(=O)[O-])CCN(CC(=O)[O-])CC3)C(=O)NCCCCOc3ccc4nccc(C(=O)NCC(=O)N5CC(F)(F)C[C@H]5C#N)c4c3)cc12.[161Tb+3] [[^161Tb]Tb-DO3A.Glu.(FAPI)2]	2.79E-02
N#C[C@@H]1CC(F)(F)CN1C(=O)CNC(=O)c1ccnc2ccc(OCCCCNC(=O)CC[C@H](NC(=O)CN3CCN(CC(=O)[O-])CCN(CC(=O)[O-])CCN(CC(=O)[O-])CC3)C(=O)NCCCCOc3ccc4nccc(C(=O)NCC(=O)N5CC(F)(F)C[C@H]5C#N)c4c3)cc12.[177Lu+3] [[^177Lu]Lu-DO3A.Glu.(FAPI)2]	2.03E-02

Field Absorbed dose (AD average) Thymus (entry N#C[C@@H]1CC(F)(F)CN1C(=O)CNC(=O)c1ccnc2ccc(OCCCCNC(=O)CC[C@H](NC(=O)CCC(C(=O)O)N3CCN(CC(=O)[O-])CCN(CC(=O)[O-])CCN(CC(=O)[O-])CC3)C(=O)NCCCCOc3ccc4nccc(C(=O)NCC(=O)N5CC(F)(F)C[C@H]5C#N)c4c3)cc12.[177Lu+3] (stereo partly shown) [[^177Lu]Lu-DOTAGA.Glu.(FAPI)2] ) reads 2.03E-02

So, N#C[C@@H]1CC(F)(F)CN1C(=O)CNC(=O)c1ccnc2ccc(OCCCCNC(=O)CC[C@H](NC(=O)CCC(C(=O)O)N3CCN(CC(=O)[O-])CCN(CC(=O)[O-])CCN(CC(=O)[O-])CC3)C(=O)NCCCCOc3ccc4nccc(C(=O)NCC(=O)N5CC(F)(F)C[C@H]5C#N)c4c3)cc12.[161Tb+3] (stereo partly shown) [[^161Tb]Tb-DOTAGA.Glu.(FAPI)2] ? Its Absorbed dose (AD average) Thymus was 2.77E-02
